- Tested on: U2OS
- test_summary: Incucyte cell viability with U2OS; further: unitless GR value; below 1 slowed growth and below 0 cell loss
- Format: toxicity, cell-based
- experimental_conditions: human, 24 h, 10 µM, compound concentration 10 uM, replicate number 2
For each of the compounds below, state its Growth Rate.
Give bare numbers.

These solved cases illustrate the format of a correct answer.
Cn1c(SCc2ccc(C(C)(C)C)cc2)nc(N)cc1=O : 0.68
Cc1ccc(S(=O)(=O)Nc2ccc(-n3nc(C(F)(F)F)cc3C(F)(F)F)cc2)cc1 : 0.72
Cc1nnsc1C(=O)Nc1ccc(-n2nc(C(F)(F)F)cc2C(F)(F)F)cc1 : 0.68

// fetch Growth Rate; item: COCc1nc2cnc3cc(-c4c(C)noc4C)c(OC[C@H]4CCNC4)cc3c2n1[C@H](C)c1ccccc1 ; system: U2OS 0.7

----------
- Test system: Fibroblast
- test_summary: Incucyte cell viability with human fibroblast; further: unitless GR value; below 1 slowed growth and below 0 cell loss
- Format: toxicity, cell-based
- experimental_conditions: 0 h, 10 µM, compound concentration 10 uM, replicate number 2
For each of the compounds below, state its Growth Rate.
Numbers only.

These solved cases illustrate the format of a correct answer.
CNc1ncc2cc(-c3ccc(-c4cccc(C)n4)cc3Cl)c(=O)n(C[C@H]3OC[C@H](N)CO3)c2n1 : -0.44
CN(C1CCc2c(c3ccccc3n2CC(=O)O)C1)S(=O)(=O)c1ccc(F)cc1 (configuration not stated) : 0.14
NC(=O)c1ccc(-c2nc(-c3ccc4c(c3)OCCO4)c(-c3ccccn3)[nH]2)cc1 : -0.85
N=C(N)Nc1cc(C2CCNCC2)cc(C(F)(F)F)c1.O=C(O)C(F)(F)F.O=C(O)C(F)(F)F : -1
COc1ccc(COc2ccc(Cc3cnc(N)nc3N)cc2OC)cc1 [GW632580X] : -0.61

# return Growth Rate for each item in the list
1. NCCCNCCCCNCCC(=O)NCCCCCNC(=O)[C@H](CC(N)=O)NC(=O)Cc1ccc(O)cc1O
2. O=C(NNC(=O)c1ccc(CNS(=O)(=O)c2ccc(F)c(Cl)c2)cc1)c1ccccc1
3. CN(C)c1ccc(-c2cc3ncccc3c(OCCCCO)n2)cc1.O=C(O)C(F)(F)F

[-1, -1, -0.45]

# return Growth Rate for each item in the list
1. O=c1c(Br)ccc2n1C[C@@H]1CNC[C@H]2C1
2. CCc1ccc(N(CC(C)C)S(=O)(=O)c2ccc(OCC3CCOCC3)c(CO)c2)cc1
3. Oc1cc2c(cc1O)CN(C(=S)NCCc1ccc(Cl)cc1)CCC2 [CAPSAZEPINE]
4. CC1(C)CCC(CN2CCN(c3ccc(C(=O)NS(=O)(=O)c4ccc(NCC5CCOCC5)c([N+](=O)[O-])c4)c(Oc4cnc5[nH]ccc5c4)c3)CC2)=C(c2ccc(Cl)cc2)C1
5. Cn1ncc(-c2nc(N[C@H]3CC[C@H](N)CC3)ncc2Cl)c1CC1CC1
6. OCC1OC(n2cnc3cc(Cl)c(Cl)cc32)C(O)C1O (configuration not stated)

-0.26
0.86
-0.78
-0.85
-0.85
-0.97

# return Growth Rate for each item in the list
1. CC(C)(C)C1CCc2c(sc(NC(=O)c3ccco3)c2C(=O)O)C1 (configuration not stated)
2. CC(C)CC(=O)Nc1cncc(-c2ccc3[nH]nc(-c4nc5c(-c6cccc(F)c6)cncc5[nH]4)c3c2)c1
3. Cc1ncsc1-c1ccc(CNC(=O)[C@@H]2C[C@H](O)CN2C(=O)[C@@H](NC(=O)C2(F)CC2)C(C)(C)C)c(OCCOc2ccc(CN3CCN(c4cc(-c5ccccc5O)nnc4N)CC3)cc2)c1
4. CCN1CCN(Cc2ccc(C(=O)Nc3ccc(C)c(Oc4ccc5c(c4)CC(=O)N5)c3)cc2C(F)(F)F)CC1.Cl.Cl
5. CCC(F)(F)c1cc(N2CCC(S(C)(=O)=O)CC2)nc2sc(C(N)=O)c(N)c12

[-0.91, -0.25, 0.56, 0.42, 0.48]

# return Growth Rate for each item in the list
1. CC1(C)OC(=O)c2ccc(Nc3ncc(-c4nnco4)c(N[C@H](CO)c4ccccc4)n3)cc21
2. C[C@H](CCC(=O)[O-])[C@H]1CC[C@H]2[C@@H]3[C@@H](O)C[C@@H]4C[C@H](O)CC[C@]4(C)[C@H]3CC[C@]12C.[Na+]

-0.49
0.84

----------
- System: U2OS
- test_summary: Incucyte cell viability with U2OS; further: unitless GR value; below 1 slowed growth and below 0 cell loss
- Format: toxicity, cell-based
- experimental_conditions: human, 6 h, 10 µM, compound concentration 10 uM, replicate number 1
For each of the compounds below, state its Growth Rate.

O=C(N[C@H](Cc1ccccc1)C(=O)O)c1cccc(OCc2cccnc2)c1.O=CO : 0.69

# return Growth Rate for each item in the list
1. CN1CCC[C@H]1c1cccnc1
2. C=C(C)[C@H]1CN[C@H](C(=O)O)[C@H]1CC(=O)O
3. CC(C)(c1ccc(OCc2cccc(COc3ccc(C(=N)N)cc3)c2)cc1)c1ccc(O[C@@H]2O[C@H](C(=O)O)[C@@H](O)[C@H](O)[C@H]2O)cc1.O=C(O)C(F)(F)F
4. COCc1nc2cnc3cc(-c4c(C)noc4C)c(OC[C@H]4CCNC4)cc3c2n1[C@H](C)c1ccccc1
5. CC(C)(O)c1coc(S(=O)(=O)NC(=O)Nc2c3c(cc4c2CCC4)CCC3)c1

[0.16, 0.42, 0.61, 0.78, 0.92]

----------
For each of the molecules below, state its Growth Rate.
- Tested on: HEK-293T
- test_summary: Incucyte cell viability with HEK293T; further: unitless GR value; below 1 slowed growth and below 0 cell loss
- Assay type: toxicity, cell-based
- experimental_conditions: human, 6 h, 10 µM, compound concentration 10 uM, replicate number 2
Numbers only.

These solved cases illustrate the format of a correct answer.
CN[C@@H](C)C(=O)N[C@H](C(=O)N1CCC[C@H]1C(=O)Nc1sc(-c2ncco2)nc1-c1ccccc1)C1CCCCC1 : 0.98
Fc1cccc(-n2cnc3c(NCc4nc5ccc(F)c(F)c5[nH]4)nc(N4CCOCC4)nc32)c1 : -0.21
CC1CNCCc2c1nc1ccnn1c2N1CC(C(=O)N2CCC(C)(C)C2)C1 (stereo unspecified) : 0.99

# return Growth Rate for each item in the list
1. CCn1ccc(Nc2ncc3c(n2)-c2c(nn(C)c2-c2ccc(-c4cnn(C)c4)cc2Cl)CC3)n1
2. N#CN1CC[C@H](C(=O)Nc2nc3c(s2)CN(C(=O)CN=[N+]=[N-])CC3)C1
3. CN1C2CCCC1CC(Nc1ccccc1Br)C2 (stereo unspecified)

1: -0.71; 2: 0.66; 3: 0.99

----------
- Tested on: HEK-293T
- test_summary: Incucyte cell viability with HEK293T; further: unitless GR value; below 1 slowed growth and below 0 cell loss
- Type: toxicity, cell-based
- experimental_conditions: human, 6 h, 10 µM, compound concentration 10 uM, replicate number 2
For each of the compounds below, state its Growth Rate.
Answers are plain numbers.

CCN1C(=CC(C)=O)Sc2ccc(OC)cc21 : 0.47

# return Growth Rate for each item in the list
1. NCC1CCC(CNc2nc(NCc3ccccc3OC(F)(F)F)ncc2[N+](=O)[O-])CC1 (centres undefined)
2. CN[C@@H](C)C(=O)N[C@H](C(=O)N1CCC[C@H]1C(=O)N[C@H]1c2ccccc2C[C@H]1OCC#CC#CCO[C@@H]1Cc2ccccc2[C@@H]1NC(=O)[C@@H]1CCCN1C(=O)[C@@H](NC(=O)[C@H](C)NC)C1CCCCC1)C1CCCCC1
3. CCN1CCN(Cc2ccc(NC(=O)c3ccc(C)c(Oc4ccnc5[nH]ccc45)c3)cc2C(F)(F)F)CC1.Cl.Cl.Cl.O
4. COc1ccccc1N1CCN(c2ncnc3c2cnn3-c2ccccc2)CC1
5. CNC(=O)c1cc(C(=O)NC2CC2)cn(Cc2ccccc2)c1=O

-0.49
0.46
-0.99
0.19
0.74

----------
- System: HEK-293T
- test_summary: Incucyte cell viability with HEK293T; further: unitless GR value; below 1 slowed growth and below 0 cell loss
- Format: toxicity, cell-based
- experimental_conditions: human, 24 h, 10 µM, compound concentration 10 uM, replicate number 1
Given measured Growth Rate, output TRUE if it is greater than or equal to 0.8 and FALSE if not.

O=C(O)c1ccnc(N2CC(O)(c3ccc(OCc4c(-c5c(Cl)cccc5Cl)noc4C4CC4)cc3Cl)C2)c1 [CILOFEXOR] : TRUE
Cc1cn([C@@H](C)CC#N)c(=O)c2cc(Cn3nc(C(F)F)cc3Cl)nn12 : TRUE
CP(C)(=O)c1ccc(CNC(=O)C2CCN(S(=O)(=O)c3cc(Cl)cc(Cl)c3)CC2)cc1 : TRUE
CC(C)[C@H](CO)Nc1nc(Nc2ccc(C(=O)O)c(Cl)c2)c2ncn(C(C)C)c2n1 : TRUE
CCN(C)S(=O)(=O)Nc1cccc(-c2ccc3c(NC(=O)C4CC4)n[nH]c3c2)c1 : FALSE

Please check the record COc1cc(F)ccc1-c1ncnc(Nc2cccc(C[S@](C)(=N)=O)c2)n1 and state if its Growth Rate is at or above 0.8. FALSE

Please check the record COc1cccc(Cn2cc(C(=O)Nc3ccc(C)c(S(=O)(=O)N4CCOCC4)c3)c(-c3ccc(C)cc3)n2)c1 and state if its Growth Rate is at or above 0.8. TRUE

Please check the record COc1cc(N2CCC(N3CCN(C)CC3)CC2)ccc1Nc1ncc(Cl)c(Nc2ccccc2S(=O)(=O)C(C)C)n1 and state if its Growth Rate is at or above 0.8. FALSE

Please check the record O=C(Nc1ccc(Cl)c(-c2ccccn2)c1)c1cccc(COc2ccc(Br)cc2CNCCO)c1.O=CO and state if its Growth Rate is at or above 0.8. FALSE

Please check the record CC[C@@H](CO)Nc1nc(Nc2cccc(NC(=O)C(C)(C)C)c2)ncc1F and state if its Growth Rate is at or above 0.8. TRUE

Please check the record Cc1c(NC(=O)COc2ccc(Cl)cc2C(=O)c2cc(F)cc(C(F)(F)F)c2)ccc(C(=O)O)c1F and state if its Growth Rate is at or above 0.8. TRUE

Please check the record COc1cc2c(NC3CCN(C(C)C)CC3)nc(C3CCCCC3)nc2cc1OCCCN1CCCC1 and state if its Growth Rate is at or above 0.8. FALSE

Please check the record CN1CCN(c2ccc(C(=O)Nc3n[nH]c4ccc(Cc5cc(F)cc(F)c5)cc34)c(NC3CCOCC3)c2)CC1 and state if its Growth Rate is at or above 0.8. FALSE

Please check the record CC1(C)CCN(C(=O)C2CN(c3c4c(nc5ccnn35)CCNCC4)C2)C1.O=C(O)C(F)(F)F and state if its Growth Rate is at or above 0.8. TRUE
